# Tested on: HEK-293T
# assay name: Multiplex assay against HEK293T
# Format: toxicity, cell-based
# assay setup: human, 48 h, 1 µM, compound concentration 1 uM, replicate 1

molecule: CCCOc1ccc2[nH]cc(C3=CCNCC3)c2n1.Cl
unit string: %
Population Mitotic Cells (%): 82
//
molecule: COc1ccccc1N1CCN(C[C@@H](C(=O)NC(C)(C)C)c2ccccc2)CC1.Cl.Cl
unit string: %
Population Mitotic Cells (%): 77
//
molecule: CCc1cc2cc(NS(=O)(=O)c3ccc(C#N)cc3)ccc2n(CC)c1=O
unit string: %
Population Mitotic Cells (%): 69
//
molecule: Cc1c(CC(=O)O)c2cccnc2n1Cc1ccc(S(C)(=O)=O)cc1C(F)(F)F [FEVIPIPRANT]
unit string: %
Population Mitotic Cells (%): 83
//
molecule: O=C1[C@H](Cc2ccc(O)cc2)N2C(=O)CCN(C(=O)NCc3ccccc3)[C@H]2CN1Cc1cccc2ccccc12
unit string: %
Population Mitotic Cells (%): 69
//
molecule: Cc1onc(-c2ccccc2Cl)c1C(=O)N(C)c1ccc(Cl)cc1
unit string: %
Population Mitotic Cells (%): 78
//
molecule: Cc1cnc(-c2cc(N3CCN(C(=O)CCS(C)(=O)=O)CC3)ncc2Cl)c(C)c1
unit string: %
Population Mitotic Cells (%): 72
//
molecule: NCCc1cn(S(=O)(=O)c2c(Cl)nc3sccn23)c2ccccc12.O=C(O)C(=O)O
unit string: %
Population Mitotic Cells (%): 76
//
molecule: CN1CCN(c2cc(-c3ccccc3)nc(N)n2)CC1
unit string: %
Population Mitotic Cells (%): 76
//
molecule: CC(=O)Nc1cccc2c1c(Sc1ccc(Cl)cc1)c(C)n2CC(=O)O [AZD1981]
unit string: %
Population Mitotic Cells (%): 78
//
molecule: CCCCCC(O)/C=C/[C@H]1C(=O)CC(O)C1C/C=C\CCCC(=O)O (stereo partly drawn)
unit string: %
Population Mitotic Cells (%): 70
//
molecule: CCCCC1=NC2(CCCC2)C(=O)N1Cc1ccc(-c2ccccc2-c2nnn[nH]2)cc1 [IRBESARTAN]
unit string: %
Population Mitotic Cells (%): 70
//
molecule: N#Cc1cc(F)cc(-c2nc(-c3ccc(F)cn3)no2)c1
unit string: %
Population Mitotic Cells (%): 64
//
molecule: N#Cc1c(Oc2cccc(OS(=O)(=O)CCCC(F)(F)F)c2)cccc1C(F)(F)F
unit string: %
Population Mitotic Cells (%): 79
//
molecule: CC(C)c1noc(N2CCC(COc3ccc(-c4ccc(S(C)(=O)=O)cc4)nc3)CC2)n1 [GSK-1292263]
unit string: %
Population Mitotic Cells (%): 77
//
molecule: COC[C@@H](c1ccc(C(F)(F)F)cc1)N1CCN(C2(C)CCN(C(=O)c3c(C)ncnc3C)CC2)C[C@@H]1C.O=C(O)/C=C\C(=O)O [VICRIVIROC MALEATE]
unit string: %
Population Mitotic Cells (%): 78
//
molecule: CC(/C=C1\SC(=S)N(CCCC(=O)Nc2ccc(C(=O)O)c(O)c2)C1=O)=C\c1ccccc1
unit string: %
Population Mitotic Cells (%): 76
//
molecule: Br.CS(=O)(=O)Nc1c(O)ccc2c1CCCC2C1=NCCN1 (stereo not drawn)
unit string: %
Population Mitotic Cells (%): 87
//
molecule: Cl.N=C(N)NC(=O)Cc1c(Cl)cccc1Cl [GUANFACINE HYDROCHLORIDE]
unit string: %
Population Mitotic Cells (%): 84
//
molecule: Cc1noc(-c2ccc(-c3ccc(CC(=O)O)cc3)cc2)c1NC(=O)O[C@H](C)c1ccccc1Cl
unit string: %
Population Mitotic Cells (%): 82
//
molecule: CN[C@@H](C)C(=O)N[C@H](C(=O)N1CCC[C@H]1C(=O)Nc1snnc1-c1ccccc1)C1CCCCC1 [GDC-0152]
unit string: %
Population Mitotic Cells (%): 68
//
molecule: Cl.NCCc1ccc(O)c(O)c1 [DOPAMINE HYDROCHLORIDE]
unit string: %
Population Mitotic Cells (%): 80
//
molecule: CC[C@@H](C)Nc1nc(C)nc2c(-c3ccc(OC)nc3C)c(C)nn12 [PEXACERFONT]
unit string: %
Population Mitotic Cells (%): 73
//
molecule: O=C(NCCN1CCC(n2c(=O)[nH]c3cc(Cl)ccc32)CC1)c1ccc(F)cc1 [HALOPEMIDE]
unit string: %
Population Mitotic Cells (%): 69
//
molecule: Cc1sc2c(c1C)C(c1ccc(Cl)cc1)=N[C@@H](CC(=O)NCCCCCCCCNC(=O)COc1cccc3c1C(=O)N(C1CCC(=O)NC1=O)C3=O)c1nnc(C)n1-2 (stereo partly drawn)
unit string: %
Population Mitotic Cells (%): 44
//
molecule: C[C@H](N)COC(=O)[C@@H](CCCCN)NC(=O)Cc1c(-c2ccc3ccccc3c2)[nH]c2c1ccc1ccccc12
unit string: %
Population Mitotic Cells (%): 84
//
molecule: CC(C)COc1ccc(CNC(=O)N(Cc2ccc(F)cc2)C2CCN(C)CC2)cc1 [PIMAVANSERIN]
unit string: %
Population Mitotic Cells (%): 72
//
molecule: O=C(CCCc1ccccc1)Nc1nc2ccccc2c(=O)s1
unit string: %
Population Mitotic Cells (%): 79

FYI, the data here is from ChEMBL document CHEMBL5058577.
